These entries and their values trace back to ChEMBL document CHEMBL1817584.

System: Staphylococcus aureus
PROCEDURE_TEXT: Antibacterial activity against Staphylococcus aureus ATCC 6538 after 24 hrs by twofold serial dilution method
Type: functional
MEASUREMENT_SETUP: ATCC 6538, 24 h
One threshold, 8 µg/mL, splits the recorded MIC values: lower ones are 1.0, equal or higher ones are 0.0.

Study these solved cases before continuing.
| STRUCTURE_STRING | TARGET_DESC | CLASSIFICATION |
| --- | --- | --- |
| OC(Cn1c[n+](Cc2cccc(Cl)c2)cn1)(Cn1c[n+](Cc2cccc(Cl)c2)cn1)c1ccc(F)cc1F.[Cl-].[Cl-] | Staphylococcus aureus | 1.0 |
| CCCC[n+]1cnn(CC(O)(Cn2c[n+](CCCC)cn2)c2ccc(F)cc2F)c1.[Br-].[Br-] | Staphylococcus aureus | 0.0 |
| OC(Cn1c[n+](Cc2ccc(Cl)cc2Cl)cn1)(Cn1c[n+](Cc2ccc(Cl)cc2Cl)cn1)c1ccc(F)cc1F.[Br-].[Br-] | Staphylococcus aureus | 0.0 |

Hello, I'm reviewing records and need to know if MIC of CCCCCCCCCCCC[n+]1cnn(CC(O)(Cn2c[n+](CCCCCCCCCCCC)cn2)c2ccc(F)cc2F)c1.[Br-].[Br-] is below 8 µg/mL. Could you check?
1.0

OC(Cn1c[n+](Cc2ccccc2Cl)cn1)(Cn1c[n+](Cc2ccccc2Cl)cn1)c1ccc(F)cc1F.[Cl-].[Cl-] , same question.
0.0

O=C1c2cccc3c(Br)ccc(c23)C(=O)N1CCCCCCn1c[n+](Cc2ccc(F)cc2F)cn1.[Br-] , same question.
0.0

---

Test system: Pseudomonas aeruginosa
PROCEDURE_TEXT: Antibacterial activity against Pseudomonas aeruginosa ATCC 27853 after 24 hrs by twofold serial dilution method
Type: functional
MEASUREMENT_SETUP: ATCC 27853, 24 h
One threshold, 30 µg/mL, splits the recorded MIC values: lower ones are YES, equal or higher ones are NO.

Study these solved cases before continuing.
| STRUCTURE_STRING | CLASSIFICATION |
| --- | --- |
| O=C1c2cccc3c(Br)ccc(c23)C(=O)N1CCCCCC[n+]1cnn(CC(O)(Cn2c[n+](CCCCCCN3C(=O)c4cccc5c(Br)ccc(c45)C3=O)cn2)c2ccc(F)cc2F)c1.[Br-].[Br-] | NO |
| OC(Cn1c[n+](Cc2ccc(Cl)cc2Cl)cn1)(Cn1c[n+](Cc2ccc(Cl)cc2Cl)cn1)c1ccc(F)cc1F.[Br-].[Br-] | NO |
| O=C1c2cccc3c(Br)ccc(c23)C(=O)N1CCCCCCn1c[n+](Cc2ccc(F)cc2F)cn1.[Br-] | YES |
| OC(Cn1c[n+](Cc2ccc(Cl)c(Cl)c2)cn1)(Cn1c[n+](Cc2ccc(Cl)c(Cl)c2)cn1)c1ccc(F)cc1F.[Cl-].[Cl-] | YES |
| O=C1c2cccc3c(Br)ccc(c23)C(=O)N1CCCCCCBr | NO |

Hello, I'm reviewing records and need to know if MIC of O=C1c2cccc3c(Br)ccc(c23)C(=O)N1CCCCCCn1cncn1 is below 30 µg/mL. Could you check?
NO

OC(Cn1c[n+](CCOc2ccc3ccccc3c2)cn1)(Cn1c[n+](CCOc2ccc3ccccc3c2)cn1)c1ccc(F)cc1F.[Br-].[Br-] , same question.
YES

OC(Cn1c[n+](Cc2ccc(Cl)cc2Cl)cn1)(Cn1c[n+](Cc2ccc(Cl)cc2Cl)cn1)c1ccc(F)cc1F.[Cl-].[Cl-] , same question.
YES

OC(Cn1c[n+](Cc2cccc(Cl)c2)cn1)(Cn1c[n+](Cc2cccc(Cl)c2)cn1)c1ccc(F)cc1F.[Cl-].[Cl-] , same question.
NO

Cc1cccc(C[n+]2cnn(CC(O)(Cn3c[n+](Cc4cccc(C)c4)cn3)c3ccc(F)cc3F)c2)c1.[Br-].[Br-] , same question.
NO

OC(Cn1c[n+](Cc2ccc(Cl)cc2)cn1)(Cn1c[n+](Cc2ccc(Cl)cc2)cn1)c1ccc(F)cc1F.[Cl-].[Cl-] , same question.
YES

BrCCOc1ccc2ccccc2c1 , same question.
NO
